Form field: TGI (one value per entry).
# Test system: SK-MEL-5 melanoma
# measurement_notes: NCI tumour cell line growth inhibition, 48 h
// note: answer is a bare numeric in µM

CC(=O)OCC1OC([S-])C(OC(C)=O)C(OC(C)=O)C1OC(C)=O.CC[PH+](CC)CC.CC[PH+](CC)CC.[Au].[Au] (stereo unspecified) ... 0.346
CC(=O)Oc1ccccc1C(=O)N=C1[Se]CCN1C(=O)c1ccccc1OC(C)=O ... 2.05

Ask | Record request: TGI value, item CCOC(=O)C1=C(C)N(N)C(=S)NC1c1ccc(C)cc1 (stereo unspecified)
Reply | 30.4

====

Form field: TGI (one value per entry).
# Test system: U251 CNS
# measurement_notes: NCI tumour cell line growth inhibition, 48 h

These recorded examples may help you get a feel for the data.
COc1cc(/C=C2\C(=O)Nc3ccc(F)cc32)cc(OC)c1OC ... 49.4 µM
Fc1ccc(Nc2cc(-n3nnc4ccccc43)nc3ccccc23)cc1 ... > 76.1 µM
CC(=O)c1c(CBr)n([O-])c2ccccc2[n+]1=O ... 29.9 µM
COc1ccc2c(c1C)C(=O)C(O)(CC=C(C)C)O2 (stereo unspecified) ... > 100 µM
CCCCCCCCCc1cc(=O)c2c(O)cccc2o1 ... > 100 µM

Ask | Record request: TGI value, item O=C(Nc1ccc(Cl)cc1F)c1cc(Br)ccc1O
Reply | > 52.4 µM

====

# System: IGROV1 ovarian
# measurement_notes: NCI tumour cell line growth inhibition, 48 h; in the data active = GI50 below about 0.43 µM; inactive = the rest
The categories you may choose from are T for active, F for inactive

The examples below pair each entry with its known result.
CC(=O)Oc1ccc(Nc2c3ccccc3nc3ccccc23)cc1 ... F
Nc1nc(Nc2ccccc2)c2ncn(Cc3cc4c(cc3Br)OCO4)c2n1 ... T
CN1CCc2c(Sc3ccc(C(=O)NO)cc3)c3ccccc3n2C1 ... F

Turning now to a further molecule:
Ask | Could you check what this test reported for Nc1c(C(=O)N/N=C/c2ccc(-c3ccc(Cl)cc3)o2)cnn1-c1ccnc2c(C(F)(F)F)cccc12 ?
Reply | F

====

# System: NCI-H460 lung
# measurement_notes: NCI tumour cell line growth inhibition, 48 h
recorded_endpoint: TGI

CCCCCCCCCc1cc(=O)c2c(O)cccc2o1 ... > 100 µM
COc1ccc(/C=c2/sc3n(c2=O)C(c2ccc(OC)c(OC)c2)C2=C(N=3)c3cc(F)ccc3OC2)cc1 (stereo not drawn) ... > 100 µM

Shift focus to the following entry.
Ask | Record request: TGI value, item COc1ccccc1/C=C/c1cnccn1
Reply | > 10 µM

====

This section lists GI50 readings for LOX IMVI melanoma.

O=C(Nc1ccc(Cl)cc1F)c1cc(Br)ccc1O ... 769 nM
OCCCCC#Cc1ccccc1C#Cc1cccc(O)c1 ... 16700 nM

Ask | So what GI50 did CC(=O)Oc1ccc(Nc2c3ccccc3nc3ccccc23)cc1 get with LOX IMVI melanoma?
Reply | 736 nM

====

# Test system: EKVX NSCLC
# measurement_notes: NCI tumour cell line growth inhibition, 48 h
Form field: TGI (one value per entry).

These recorded examples may help you get a feel for the data.
Cc1cn(C2CC(ON3C(=O)c4ccccc4C3=O)C(CO)O2)c(=O)[nH]c1=O (centres undefined) ... > 10 µM
COC(=O)/C=C/C1C(C(=O)OC)C2(C(=O)OC)CCC1(C(=O)OC)N2 (centres undefined) ... > 100 µM
O=C(Nc1ccc(Cl)cc1F)c1cc(Br)ccc1O ... > 26.1 µM

Shift focus to the following entry.
Ask | Record request: TGI value, item CCOC(=O)CC1c2ccc(O)cc2OC(=O)C1c1ccc([N+](=O)[O-])cc1 (centres undefined)
Reply | > 100 µM

====

Form field: TGI (one value per entry).
# System: IGROV1 ovarian
# measurement_notes: NCI tumour cell line growth inhibition, 48 h

CC(=O)OC1CC2c3cccc4c3C(CC2N(C)C1=O)CN4C(=O)c1ccccc1 (centres undefined) ... 43.8 µM
COc1cc2c(cc1OCc1ccccc1)CNCC2 ... > 100 µM

Ask | Record request: TGI value, item CCOC(=O)CC1c2ccc(O)cc2OC(=O)C1c1ccc([N+](=O)[O-])cc1 (centres undefined)
Reply | 60.5 µM

Ask | Record request: TGI value, item O=C(/C=C/c1ccccc1)/C=C/c1ccccc1
Reply | 66.5 µM

Ask | Record request: TGI value, item CCCCCCCCCc1cc(=O)c2c(O)cccc2o1
Reply | > 100 µM

Ask | Record request: TGI value, item O=C(Nc1ccc(Cl)cc1F)c1cc(Br)ccc1O
Reply | > 100 µM

Ask | Record request: TGI value, item NC1CCCC[C@H]1N.N[C@@H]1CCCC[C@@H]1N.O=C(P(=O)([O-])[O-])P(=O)([O-])[O-].[Pt+4].[Pt+4]
Reply | > 100 µM

Ask | Record request: TGI value, item CC1=NC(=Cc2ccc(O)cc2)C(=O)N1n1c(-c2ccccc2)nc2ccccc2c1=O
Reply | > 100 µM

Ask | Record request: TGI value, item O=C(O)c1cccc(OCCO)c1
Reply | > 100 µM

====

# System: A498 renal
# measurement_notes: NCI tumour cell line growth inhibition, 48 h
recorded_endpoint: TGI

These recorded examples may help you get a feel for the data.
C#CCn1ncc2c(SCc3ccccc3)ncnc21 ... > 100 µM
N#CSc1nc[nH]c1C(N)=O ... > 100 µM
CCOC(=O)C1=C(Nc2cccc(OC)c2)OCC1=O ... > 100 µM
O=C(CN1CCCCC1)N1CCc2c([nH]c3ccccc23)C1c1cccnc1 (stereo unspecified) ... > 100 µM
COC1=C(Br)[C@H](O)[C@@]2(C=C1Br)CC(C(=O)NCCCCCN=C(N)N)=NO2 ... > 10 µM

Ask | Record request: TGI value, item c1cc(-c2ncc(-c3ccc4c(c3)CCCO4)o2)ccn1
Reply | 59.6 µM

Ask | Record request: TGI value, item CN1CCOC1(C)CO (stereo unspecified)
Reply | > 100 µM

Ask | Record request: TGI value, item O=C1NC(=O)C(CCO)(c2ccccc2)C(=O)N1
Reply | > 100 µM

Ask | Record request: TGI value, item CCN1c2nc3ccccc3nc2N(CC)c2nc3ccccc3nc21
Reply | > 100 µM

Ask | Record request: TGI value, item CC(C)(C)C(=O)/C=C/c1ccc(Oc2ccccc2)cc1
Reply | 32.7 µM

Ask | Record request: TGI value, item N#CC(/C(=N/NC(=O)C(=O)NN)C(=O)NC12CC3CC(CC(C3)C1)C2)c1ccccc1 (stereo unspecified)
Reply | > 100 µM

Ask | Record request: TGI value, item COC(COC(=O)N1CCN(C=O)CC1)C1=C(N2CC2)C(=O)C(C)=C(N2CC2)C1=O (stereo unspecified)
Reply | 4.02 µM

Ask | Record request: TGI value, item CC12CCC(C(=O)OC1=O)C2(C)C (stereo unspecified)
Reply | > 100 µM

Ask | Record request: TGI value, item CC(C)=CCS(=O)c1ccccc1NC1=CC(=O)CC(C)(C)C1 (stereo unspecified)
Reply | > 100 µM

Ask | Record request: TGI value, item COn1cc(C=O)c2ccccc21
Reply | 3.97 µM

Ask | Record request: TGI value, item COc1ccc2c(c1)CC[C@@H]1[C@@H]2CC[C@]2(C)C(=O)/C(=C/c3ccc(OC)c(OC)c3)C[C@@H]12
Reply | > 100 µM

====

Form field: TGI (one value per entry).
# Test system: HS 578T breast
# measurement_notes: NCI tumour cell line growth inhibition, 48 h

CC1=CC(C2/C(=N/O)C=C(C)CC2(C)C)C(O)C(C)(C)C1 (configuration not stated) ... > 100 µM
CN(C)C(=O)NCCN1CCCCCc2ccccc21 ... > 100 µM
CCN(CC)CCOc1ccc(/C(=C(\C)c2ccc(F)c(OC)c2)c2ccc(Cl)cc2)cc1 ... 5.84 µM
Nc1nc(Cl)cc(NCCO)n1 ... > 100 µM
N#Cc1sc2nc(/C=C3/C=CC=CC3=O)c(O)n2c1N ... > 100 µM
O=C(O)c1c(-c2nccc3ccccc23)[nH]c(-c2ccccc2)c1S(=O)(=O)O ... > 100 µM

Ask | Record request: TGI value, item C=CCNC1=C2C[C@@H](C)C[C@@H](OC)[C@@H](OC(=O)CCCN)[C@H](C)/C=C(\C)[C@@H](OC(N)=O)[C@H](OC)/C=C\C=C(/C)C(=O)NC(=CC1=O)C2=O
Reply | 49.5 µM

Ask | Record request: TGI value, item NC(CCC(=O)NC(CSC(=O)N(O)c1ccc(Br)cc1)C(=O)NCC(=O)O)C(=O)O (configuration not stated)
Reply | > 50 µM

Ask | Record request: TGI value, item COC(=O)C1=C(C)NC(C)=C(C(=O)OC)C1c1ccc(/[N+]([O-])=C/c2ccccc2)cc1
Reply | > 100 µM

Ask | Record request: TGI value, item Nc1c(C(=O)N/N=C/c2ccc(-c3ccc(Cl)cc3)o2)cnn1-c1ccnc2c(C(F)(F)F)cccc12
Reply | > 100 µM

Ask | Record request: TGI value, item CCC1c2[nH]c3ccccc3c2C[C@H]2C(=O)NC(COC(C)(C)C)C(=O)N12 (some centres not stated)
Reply | > 100 µM

Ask | Record request: TGI value, item COc1cc2cn3c4ccc(O)cc4[nH]c(=O)c3c2cc1OC
Reply | > 100 µM
